All values here come from PubChem BioAssay AID1996.

Conditions: buffer; pH 7.4; 200.0 µM
MEASUREMENT KIND: solubility kinetic (µg/mL)

- Cc1ccc(C)c(C(=O)CCC(=O)Nc2ccc(N3CCN(C)CC3)cc2C)c1: 55.8
- Cc1cc2c(=O)n(C)c(SCC(=O)Nc3ccccc3)nc2s1: 0.4
- O=Cc1cn(Cc2c(F)cccc2Cl)c2ccccc12: 5.6
- CC(=O)NCc1ccc(-c2nc3ccccc3s2)cc1: 8.6
- O=C(NCC(=O)N1CCN(S(=O)(=O)c2ccc3c(c2)OCCO3)CC1)c1ccccc1F: 10.2
- COc1ccccc1CNC(=O)COC(=O)c1cc2ccccc2o1: 3.8
- O=S(=O)(Nc1ccc(Br)cn1)c1cccs1: 42.4
- Cc1ccc(N=C2NC(=O)C(CO)(CO)S2)cc1: 27.1

----------
Conditions: buffer; pH 7.4; 200.0 µM
MEASUREMENT KIND: solubility kinetic (µg/mL)

• Cc1ccc(NC(=O)c2cnccn2)cc1S(=O)(=O)N1CCCCCC1 = 5.4
• O=c1[nH]c2ccccc2n1CCCN1CCC(n2c(=O)[nH]c3cc(Cl)ccc32)CC1 = 50.4
• O=C(CSc1ncnc2nc[nH]c12)c1ccc([N+](=O)[O-])cc1 = 2.6
• COc1ccccc1N1CCN(C(=O)/C=C/c2cccc([N+](=O)[O-])c2)CC1 = 3.6
• O=C(O)c1ccc(S(=O)(=O)Nc2ccc3c(c2)OCCO3)cc1 = 41.5
• CC(Nc1c([N+](=O)[O-])c(=O)oc2ccccc12)c1ccccc1 (centres undefined) = 8.8
• O=C(Nc1nccs1)c1cc2cc(Cl)ccc2oc1=O = 1.5
• O=[N+]([O-])c1ccc(N2CCc3ccccc3C2)cc1 = 0.9
• Cc1ccc2c(C)cc(=S)[nH]c2c1 = 7.1
• COC(=O)c1cc(S(=O)(=O)N2CCC(C)CC2)cn1C = 41.9
• Cc1ccc(OCC(=O)Nc2ccon2)c([N+](=O)[O-])c1 = 4.5

----------
Conditions: buffer; pH 7.4; 200.0 µM
MEASUREMENT KIND: solubility kinetic (µg/mL)

* CC(C)(C)N(Cc1ccccc1)C(=O)COC(=O)c1ccc(S(=O)(=O)N2CCOCC2)cc1 | 18.4
* Cc1cccc(C)c1OC(=O)Cc1ccccc1[N+](=O)[O-] | 1.8
* O=C(Nc1ccc2c(c1)Cc1ccccc1-2)c1cccnc1 | 1.4

----------
Conditions: buffer; pH 7.4; 200.0 µM
Param threshold (20 µg/mL) applies to solubility kinetic; output rule met when value >= threshold, rule not met when value < threshold.

• O=C(COC(=O)/C=C/c1ccccc1Cl)NC(=O)NC1CCCC1 = rule not met
• OCCN1CCN(c2nc(-c3ccccc3O)nc3ccccc23)CC1 = rule met
• CCOc1ccc(C2NC(=O)CCC2[N+](=O)[O-])cc1 (stereo unspecified) = rule met
• Nc1cnn(C2OC(CO)C(O)C2O)c(=O)n1 (stereo unspecified) = rule met
• Cc1ccc(Cl)cc1NC(=O)NCc1cccnc1 = rule not met
• Cc1ccc(/C=C/C(=O)NCCc2ccccc2)o1 = rule met
• O=C(O)CN1C(=O)/C(=C/c2ccccc2Cl)Oc2ccccc21 = rule met
• CCN(CC(=O)Nc1ccc2c(c1)OCCO2)CC(=O)Nc1ccccc1C(F)(F)F.O=C(O)C(=O)O = rule met
• CCCN1C[C@H](CSC)C[C@@H]2c3cccc4[nH]cc(c34)C[C@H]21.CS(=O)(=O)O = rule not met
• c1ccc2c(Nc3nc(-c4ccncc4)nc4ccccc34)cccc2c1 = rule not met

----------
Details: buffer; pH 7.4; 200.0 µM
MEASUREMENT KIND: solubility kinetic (µg/mL)

• CC(=O)c1c(C)[nH]c(C(=O)OCC(=O)c2ccc3c(c2)NC(=O)CO3)c1C = 10.5
• Cc1ccc(C(=O)NCc2ccc3c(c2)OCO3)c(C)c1 = 11.1
• Cc1ccc(NS(=O)(=O)Cc2ccccc2)cc1Cl = 1.8
• Clc1cc(Br)ccc1NCc1cccnc1 = 24.7
• COC(=O)c1c(NC(=O)C2CC(C)=C(C)CC2C(=O)O)sc2c1CCCCC2 (stereo not drawn) = 58.1
• COc1ccc2oc(C(=O)NC(C)(C)C)c(C)c2c1 = 1.8
• CCNC(=O)c1c(O)c2c([nH]c1=O)CCCC2 = 3
• O=C(c1ccco1)N1CCN(C(=S)NC2CC3CCC2C3)CC1 (stereo not drawn) = 46.8
• CC1(C)Cc2c(sc(NC(=O)/C=C/C(=O)O)c2C#N)CO1 = 41.4
• Cn1ccc(=S)c2ccccc21 = 25.2
• Cc1ccc2c(C)c(C(=O)NCCc3ccco3)oc2c1C = 2.8

----------
Conditions: buffer; pH 7.4; 200.0 µM
Each record here notes measured solubility kinetic.
MEASUREMENT KIND: solubility kinetic

- O=C(COc1ccccc1)NCCSCc1ccccc1Cl: 14.7 µg/mL
- Cn1c(C(=O)O)ccc1S(=O)(=O)N(Cc1ccccc1)Cc1ccccc1: > 57.7 µg/mL
- CCOC(=O)C(=CNc1ccc(C(F)(F)F)cc1)C(=O)OCC: 2.7 µg/mL
- Nc1cc(=O)[nH]c(SCC(=O)Nc2cccc(Cl)c2Cl)n1: 8.4 µg/mL
- O=C(CNC(=O)c1ccc(Br)cc1)c1ccccc1: 1.3 µg/mL
- Cc1ccc(S(=O)(=O)NCC(=O)OCC(=O)N(CCC#N)c2ccccc2)cc1: > 62.3 µg/mL
- Cc1ccc(Nc2ccncc2S(N)(=O)=O)cc1: 33 µg/mL
- CC(C)(C)NS(=O)(=O)c1ccc(NC(=O)C2CCCCC2)cc1: 11.5 µg/mL
- CN(C(=O)COC(=O)C12CC3CC(CC(Cl)(C3)C1)C2)c1ccccc1: 21.4 µg/mL
- CC(=O)c1ccccc1NC(=O)CSc1n[nH]c(=O)n1C1CC1: > 49.9 µg/mL
- Cc1noc(C(=O)NCC2CCCO2)c1Cl (stereo unspecified): > 36.7 µg/mL

----------
Details: buffer; pH 7.4; 200.0 µM
MEASUREMENT KIND: solubility kinetic (µg/mL)

• COC(=O)c1cc(C(=O)Nc2nc3ccccc3[nH]2)cc([N+](=O)[O-])c1 = 1.1
• CC(=O)Nc1cccc(NC(=O)c2cccc3cccnc23)c1 = 19.2
• CN1c2ccc([N+](=O)[O-])cc2N(C)C1(C)c1ccccc1 (centres undefined) = 1.2
• CCN(Cc1ccncc1)C(=O)CCc1ccccc1 = 33.4
• COc1cc2c(cc1OC)C(c1ccccc1Cl)N(C)CC2 (centres undefined) = 36.4
• O=C(NCC1CC1(Cl)Cl)Nc1ccc(Cl)c(Cl)c1 (centres undefined) = 9.1
• CCOc1ccc(NC(=O)CN2C(=O)NC(CCc3ccccc3)C2=O)cc1OCC (centres undefined) = 8.8
• CCc1ccccc1NC(=O)c1cc(-c2cccs2)on1 = 0.8
• CN1CCN(C(=S)C(=O)Nc2ccccc2)CC1 = 38.2
• CC(C)N(Cc1ccccc1)C(=O)c1ccc2nsnc2c1 = 38.2
• CN1C2CCC1CC(NS(=O)(=O)c1cccc(C(F)(F)F)c1)C2 (centres undefined) = 48.3
• COc1ccc2nc(SCC(=O)C(C)(C)C)[nH]c2c1 = 30.9
• CCS(=O)(=O)c1ccc(O)c(NC(=O)/C=C/c2ccc(Cl)cc2)c1 = 3.9
• Cc1cccn2cc(-c3ccc(Cl)cc3)nc12 = 2.7
• O=C(NC(=S)Nc1cccc2cc(O)ccc12)c1ccco1 = 13.2

----------
Conditions: buffer; pH 7.4; 200.0 µM
MEASUREMENT KIND: solubility kinetic (µg/mL)

• Cc1noc(NS(=O)(=O)c2ccc(NC(=O)c3cc4ccccc4o3)cc2)c1C = 61.6
• CC(=O)Nc1cccc(NCC(=O)Nc2cc(S(=O)(=O)N3CCCCC3)ccc2Cl)c1 = 35.8
• O=C(NC1CCSc2ccccc21)c1cccc(OC(F)F)c1 (stereo unspecified) = 4.5

----------
Settings: buffer; pH 7.4; 200.0 µM
Reported solubility kinetic is given for each of the following molecules.
MEASUREMENT KIND: solubility kinetic (µg/mL)

- CCN(c1cccc(C)c1)S(=O)(=O)c1ccc2c(c1)oc(=O)n2C: 2.7
- CCN1/C(=C2\OC(=S)N(C)C2=O)C=Cc2ccccc21: 0.3
- Nc1no[n+]([O-])c1-c1ccccc1: 24.2

----------
Conditions: buffer; pH 7.4; 200.0 µM
# maps each entry to its solubility kinetic
MEASUREMENT KIND: solubility kinetic

- S=C(Nc1ccc(Br)cc1)Nc1ccc2c(c1)OCCO2: 0.0015 mg/mL
- CC(C)CNC(=O)COC(=O)Cc1ccc(Cl)cc1: 0.0361 mg/mL
- Cc1c(C(=O)N2CCOCC2)sc(NC(=O)C(C)C)c1C#N: > 0.0482 mg/mL
- Cc1noc(C)c1C(=O)OC(C)C(=O)N(C)c1ccccc1 (stereo unspecified): > 0.0453 mg/mL
- O=C(NC(=S)Nc1ccccc1Cl)C1CC1: > 0.0382 mg/mL
- O=C(O)C1CN(C(=O)c2ccccc2)c2cc(Cl)ccc2O1 (stereo unspecified): > 0.0477 mg/mL
